Recorded values, source ChEMBL document CHEMBL4311987.

system: Fructose-1,6-bisphosphatase 1 (Homo sapiens, UniProt P09467, C180S)
Sequence (P09467 2-338 C180S limits assumed): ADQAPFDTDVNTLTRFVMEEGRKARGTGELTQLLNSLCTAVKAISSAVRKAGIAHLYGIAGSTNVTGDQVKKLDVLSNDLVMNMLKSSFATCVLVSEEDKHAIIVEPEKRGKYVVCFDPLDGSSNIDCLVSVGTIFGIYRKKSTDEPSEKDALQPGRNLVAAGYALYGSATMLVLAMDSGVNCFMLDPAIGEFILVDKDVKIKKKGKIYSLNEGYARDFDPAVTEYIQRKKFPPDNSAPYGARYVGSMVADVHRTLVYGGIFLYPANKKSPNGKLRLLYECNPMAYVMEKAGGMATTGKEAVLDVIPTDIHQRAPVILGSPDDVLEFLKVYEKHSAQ
methodNotes: Inhibition of human FBPase C179S mutant expressed in Escherichia coli BL21 (DE3) using FBP as substrate incubated for 5 mins by malachite green dye based spectrophotometry
readoutType: IC50 (nM)

smilesRepr | readoutType | endpointValue
N#Cc1ccc(/C=C/[N+](=O)[O-])cc1 | IC50 | 430
O=[N+]([O-])/C=C/c1cccc(F)c1 | IC50 | 890
CCOC(=O)C(C)(C)Oc1ccc(F)c(/C=C/[N+](=O)[O-])c1 | IC50 | 3600

====

system: Fructose-1,6-bisphosphatase 1 (Homo sapiens, UniProt P09467, C93S)
Sequence (P09467 2-338 C93S limits assumed): as the sequence (P09467 2-338 C180S limits assumed) above, with C92S, S179C counted along it
methodNotes: Inhibition of human FBPase C92S mutant expressed in Escherichia coli BL21 (DE3) using FBP as substrate incubated for 5 mins by malachite green dye based spectrophotometry
pIC50: −log10 of the molar value.
readoutType: pIC50

smilesRepr | endpointValue
CCOC(=O)C(C)(C)Oc1ccc(F)c(/C=C/[N+](=O)[O-])c1 | 6.19
O=[N+]([O-])/C=C/c1cccc(F)c1 | 6.21
N#Cc1ccc(/C=C/[N+](=O)[O-])cc1 | 6.47

====

methodNotes: Cytotoxicity against C57BLKS rat Primary hepatocytes assessed as cell viability incubated for 6 hrs by SRB assay
Format: cell-based, Hepatocyte
cond: read-out: Activity

smilesRepr | viability at 6 h
CCOC(=O)C(C)(C)Oc1ccc(Cl)cc1/C=C/[N+](=O)[O-] | > 80%
CCOC(=O)C(C)(C)Oc1ccc(F)c(/C=C/[N+](=O)[O-])c1 | > 80%
CCOC(=O)C(C)(C)Oc1ccc(Cl)c(/C=C/[N+](=O)[O-])c1 | > 80%

====

pIC50: recorded values
system: UniProt P09467
pIC50: −log10 of the molar value.
readoutType: pIC50

compound | system | readoutType | endpointValue
CCOC(=O)C(C)(C)Oc1cc(/C=C/[N+](=O)[O-])ccc1OC(F)F | UniProt P09467 | pIC50 | 5.80
Nc1ncnc2c1ncn2[C@@H]1O[C@H](COP(=O)(O)O)[C@@H](O)[C@H]1O [ADENOSINE PHOSPHATE] | UniProt P09467 | pIC50 | 5.64
O=[N+]([O-])/C=C/c1ccccc1 | UniProt P09467 | pIC50 | 5.46
CCOC(=O)C(C)(C)Oc1cc(/C=C/[N+](=O)[O-])ccc1Cl | UniProt P09467 | pIC50 | 6.08
CCOC(=O)C(C)(C)Oc1ccc(Cl)c(/C=C/[N+](=O)[O-])c1 | UniProt P09467 | pIC50 | 5.54
CCCCCCCC/C=C(\CCCCCCCC(=O)O)[N+](=O)[O-] | UniProt P09467 | pIC50 | 4.24
CCOC(=O)C(C)(C)Oc1ccc(F)c(/C=C/[N+](=O)[O-])c1 | UniProt P09467 | pIC50 | 6.21
N#Cc1ccc(/C=C/[N+](=O)[O-])cc1 | UniProt P09467 | pIC50 | 6.44
O=[N+]([O-])/C=C/c1cccc(F)c1 | UniProt P09467 | pIC50 | 6.49
CCOC(=O)C(C)(C)Oc1ccc(/C=C/[N+](=O)[O-])cc1Cl | UniProt P09467 | pIC50 | 5.80
CCOC(=O)C(C)(C)Oc1ccc(Br)c(/C=C/[N+](=O)[O-])c1 | UniProt P09467 | pIC50 | 6.10
CCOC(=O)C(C)(C)Oc1ccccc1/C=C/[N+](=O)[O-] | UniProt P09467 | pIC50 | 5.57
